The origin of these recorded values is ChEMBL document CHEMBL1629686.

Tested on: Escherichia coli
Method Notes: Antimicrobial activity against Escherichia coli DH10B harboring beta-lactamase KPC-2 T237A mutant by agar dilution method
Format: functional
Measurement Setup: K-12 DH10B
Property: MIC (µg/mL)
Numbers only; they are read as µg/mL.

Memo: C[C@@H](O)[C@H]1C(=O)N2C(C(=O)O)=C(S[C@@H]3CN[C@H](C(=O)N(C)C)C3)[C@H](C)[C@H]12 , reported MIC: 0.06

Memo: CC(=O)OCC1=C(C(=O)O)N2C(=O)[C@@H](NC(=O)Cc3cccs3)[C@H]2SC1 , reported MIC: 32

Memo: CC1(C)S[C@@H]2[C@H](NC(=O)[C@H](N)c3ccccc3)C(=O)N2[C@H]1C(=O)O , reported MIC: 256

Memo: C[C@@H](O)[C@H]1C(=O)N2C(C(=O)O)=C(S[C@@H]3CN[C@H](C(=O)Nc4cccc(C(=O)O)c4)C3)[C@H](C)[C@H]12 , reported MIC: 0.06

* * *

Test system: Escherichia coli
Method Notes: Antimicrobial activity against Escherichia coli DH10B harboring beta-lactamase KPC-2 T237Y mutant by agar dilution method
Format: functional
Measurement Setup: K-12 DH10B
MIC values for the molecules below.
Numbers only; they are read as µg/mL.

# annotated cases, reported MIC shown
[
  {
    "Molecule": "CC(=O)OCC1=C(C(=O)O)N2C(=O)[C@@H](NC(=O)Cc3cccs3)[C@H]2SC1 [CEPHALOTHIN]",
    "Target Of Assay": "Escherichia coli",
    "Units Text": "µg/mL",
    "MIC": 16
  },
  {
    "Molecule": "CO/N=C(\\C(=O)N[C@@H]1C(=O)N2C(C(=O)O)=C(COC(C)=O)CS[C@H]12)c1csc(N)n1 [CEFOTAXIME]",
    "Target Of Assay": "Escherichia coli",
    "Units Text": "µg/mL",
    "MIC": 0.06
  },
  {
    "Molecule": "C[C@@H](O)[C@H]1C(=O)N2C(C(=O)O)=C(S[C@@H]3CN[C@H](CNS(N)(=O)=O)C3)[C@H](C)[C@H]12 [DORIPENEM]",
    "Target Of Assay": "Escherichia coli",
    "Units Text": "µg/mL",
    "MIC": 0.06
  },
  {
    "Molecule": "C[C@@H](O)[C@H]1C(=O)N2C(C(=O)O)=C(S[C@@H]3CN[C@H](C(=O)N(C)C)C3)[C@H](C)[C@H]12 [MEROPENEM]",
    "Target Of Assay": "Escherichia coli",
    "Units Text": "µg/mL",
    "MIC": 0.06
  }
]

Memo: CC1(C)S[C@@H]2[C@H](NC(=O)[C@H](N)c3ccccc3)C(=O)N2[C@H]1C(=O)O [AMPICILLIN] , reported MIC: 16

Memo: C[C@@H](O)[C@H]1C(=O)N2C(C(=O)O)=C(S[C@@H]3CN[C@H](C(=O)Nc4cccc(C(=O)O)c4)C3)[C@H](C)[C@H]12 , reported MIC: 0.06

Memo: CCN1CCN(C(=O)N[C@@H](C(=O)N[C@@H]2C(=O)N3[C@@H]2SC(C)(C)[C@@H]3C(=O)O)c2ccccc2)C(=O)C1=O [PIPERACILLIN] , reported MIC: 4

* * *

Tested on: Klebsiella pneumoniae
Method Notes: Activity of Klebsiella pneumoniae 1534 beta-lactamase KPC-2 T237A mutant by spectrophotometric analysis
Property: Km
Answer format: number, then unit.

[
  {
    "Molecule": "CCN1CCN(C(=O)N[C@@H](C(=O)N[C@@H]2C(=O)N3[C@@H]2SC(C)(C)[C@@H]3C(=O)O)c2ccccc2)C(=O)C1=O [PIPERACILLIN]",
    "Measured": "12 µM"
  },
  {
    "Molecule": "O=C(Cc1cccs1)N[C@@H]1C(=O)N2C(C(=O)O)=C(/C=C/c3ccc([N+](=O)[O-])cc3[N+](=O)[O-])CS[C@H]12",
    "Measured": "15 µM"
  },
  {
    "Molecule": "C[C@@H](O)[C@H]1C(=O)N2C(C(=O)O)=C(SCCNC=N)C[C@H]12 [IMIPENEM ANHYDROUS]",
    "Measured": "31 µM"
  }
]

As a next step, examine the molecule that follows.
Memo: CC(=O)OCC1=C(C(=O)O)N2C(=O)[C@@H](NC(=O)Cc3cccs3)[C@H]2SC1 [CEPHALOTHIN] , reported Km: 30 µM
